Test system: UO-31
Assay: NCI tumour cell line growth inhibition, 48 h
The source made the active and inactive calls. Cut-off read from the data, not from the text of the source: active = GI50 up to about 1.1 µM and inactive = higher.
PARAMETER_MEASURED: GI50

INSERT INTO results (compound, experimental_result) VALUES
  ('Cc1cc(O)cc2c1c(=O)c1ccccc1n2C', '> 100 µM (inactive)'),
  ('CC(=O)O[C@]1(C)OC(=O)[C@@H](CC(C)C)N1[N+](=O)[O-]', '> 100 µM (inactive)'),
  ('NC(N)=NN/C(=C1/N=c2ccc([N+](=O)[O-])cc2=NC1=O)C(O)c1ccco1 (stereo not given)', '64.7 µM (inactive)'),
  ('CC1=C(C(=O)Nc2cc(F)c(F)cc2F)C(c2ccc3c(c2)OCO3)C(C(=O)Nc2cc(F)c(F)cc2F)=C(C)N1', '12.9 µM (inactive)'),
  ('COC(=O)[C@@]1(O)CC(C)C=C1C=O (stereo not given in full)', '> 100 µM (inactive)'),
  ('CC(C)(C)OC(=O)NCC(=O)N1CCN(C(=O)CNC(=O)OC(C)(C)C)CC1', '> 100 µM (inactive)'),
  ('O=C1N/C(=N/N=C\C(O)C(O)C(O)CO)N/C1=C/c1ccccc1 (stereo not given)', '> 100 µM (inactive)'),
  ('CC(=O)Nc1nc(C)c(S(=O)(=O)NC(=O)N2c3ccccc3CCc3ccccc32)s1', '> 100 µM (inactive)'),
  ('COC(=O)C1=C(C(=O)OC)C2=S(SC3=C2CCCC3)S1 (stereo not given)', '68.1 µM (inactive)'),
  ('CCC1OC2C(CC=C(C)C)=C3OC(C)(O)C(C)(CC)C(=O)C3=C3OC(=O)C=C1C32 (stereo not given)', '15.3 µM (inactive)');

These data points were gathered from ChEMBL document CHEMBL1201862.
